tested on: RXF-631 renal; assay: NCI tumour cell line growth inhibition, 48 h
Endpoint Label: TGI (µM)
Numbers only; they are read as µM.

What TGI value was documented for this compound, COC(=O)/C=C(/C(=O)OC)C1(C)c2cc(C(=O)OC)c(C(=O)OC)c(N)c2C(=N)N1c1ccccc1 (stereo not given) ? 86.9

Likewise for COC1N(C2CC(O)C(CO)O2)C(=O)NC(=O)C1(F)Br (stereo not given) ? 50

---

system: MDA-MB-231 breast; assay: NCI tumour cell line growth inhibition, 48 h; in the data active = GI50 below about 0.43 µM; inactive = the rest
Hi there, use one of these labels in your reply, thanks! y for active, n for inactive

Outcome logged for CCNc1nc(O)c(/C=C2\C=Nc3ncccc32)s1 in this assay: n

Likewise for COc1cc2c(cc1Nc1nc(N3CCc4ccccc43)c3cc[nH]c3n1)N(C(=O)CN(C)C)CC2 ? n

Likewise for Cc1ccc(O)cc1Nc1ccnc2ccc(S(C)(=O)=O)cc12 ? n

Likewise for COC(=O)OC1C(O[C@H]2C[C@H]3[C@@H]4CC=C5C[C@@H](O)CC[C@]5(C)[C@H]4CC[C@]3(C)[C@H]2[C@H](C)C(=O)CCC(C)C)OCC(O)C1OC1OCC(O)C(O)C1OC(=O)c1ccc(OC)cc1 (some centres not stated) ? y

Likewise for O=C(/C=C/C12c3ccccc3C(c3ccccc31)C1C(=O)NC(=O)C12)c1ccccn1 (configuration not stated) ? n

Likewise for CC1(C)OC[C@@H]([C@@]2(CO[Si](c3ccccc3)(c3ccccc3)C(C)(C)C)CC=CC(=O)O2)O1 ? n

Likewise for CC(=O)ON1CCCC(P(=O)(OCOC(=O)C(C)(C)C)OCOC(=O)C(C)(C)C)C1=O (configuration not stated) ? n

Likewise for O=C1c2cccc(Oc3ccccc3)c2C(=O)c2cccc(Oc3ccccc3)c21 ? n

Likewise for N#CC1c2ccccc2C=CN1C(=O)CCCl (configuration not stated) ? n

Likewise for Cc1cccc(NC(=O)c2sc3nc4c(cc3c2N)C(=O)CCC4)c1 ? n

Likewise for COc1ccc(C(=O)c2cc(OC)c(OC)c(OC)c2OC)cc1O ? n

Likewise for O=C(NCCNCCO)c1ccc2c(c1)oc1cc3ccccc3c(=O)n12 ? n

Likewise for OC1(c2ccc(Cl)c(C(F)(F)F)c2)CCN(CCCC(c2ccc(F)cc2)c2ccc(F)cc2)CC1 ? n

Likewise for Cn1nccc1Nc1nccc(-c2ccn([C@H](CO)c3ccc(Cl)c(F)c3)c(=O)c2)n1 ? n

Likewise for CCN(CC)CCCNc1ccc(C)c2sc3ccccc3c(=O)c12 ? y

Likewise for COc1ccc2c(N)ncc(C#Cc3cc(C(=O)Nc4ccc(CN5CCN(C)CC5)c(C(F)(F)F)c4)cnc3C)c2c1 ? n

Likewise for COc1ccc(OC)c(/C=C/c2nc(=S)n(-c3ccc(Cl)cc3)[nH]2)c1 ? n
